system: Human immunodeficiency virus 1; assay: Antiviral activity against VSV-G pseudotyped HIV1 infected in human SupT1 cells after 48 hrs by luciferase reporter gene assay; type: functional, organism-based; settings: Human immunodeficiency virus 1, SUP-T1, 48 h
The reader will find reported pIC50 values listed item by item below.
// scale note: pIC50 = -log10(conc_M); give the bare number

- COMPOUND: "O=C1Nc2ccc(Cl)cc2[C@@](C#CC2CC2)(C(F)(F)F)O1 [EFAVIRENZ]"
  TARGET ENTITY: "Human immunodeficiency virus 1"
  pIC50: 9.40
- COMPOUND: "COC1=C(c2ccc(O)cc2)[C@@H](Cc2ccc(O)cc2)OC1=O"
  TARGET ENTITY: "Human immunodeficiency virus 1"
  pIC50: 4.16
- COMPOUND: "COC(=O)c1cc(O)cc(OC)c1C(=O)c1c(O)c(Cl)c(C)c(Cl)c1O [DIHYDROGEODIN]"
  TARGET ENTITY: "Human immunodeficiency virus 1"
  pIC50: 4.25
- COMPOUND: "COC(=O)[C@]1(Cc2ccc(O)cc2)OC(=O)C(OC)=C1c1ccc(O)cc1"
  TARGET ENTITY: "Human immunodeficiency virus 1"
  pIC50: 4.13
- COMPOUND: "Cc1c(O)c(O)c(O)c(C=O)c1-c1cc2c(C=O)c(C)c(O)c(O)c2o1"
  TARGET ENTITY: "Human immunodeficiency virus 1"
  pIC50: 4.69
- COMPOUND: "COc1cc(/C=C2\\OC(=O)C(c3ccc(O)cc3)=C2O)cc(OC)c1O"
  TARGET ENTITY: "Human immunodeficiency virus 1"
  pIC50: 4.36
- COMPOUND: "O=C1O[C@H](Cc2ccc(O)cc2)C(c2ccc(O)cc2)=C1O"
  TARGET ENTITY: "Human immunodeficiency virus 1"
  pIC50: 4.27
- COMPOUND: "CC1=C(C)[C@H]2[C@H](Cc3ccccc3)NC(=O)[C@]23OC(=O)/C=C/[C@@](C)(O)C[C@@H](C)C/C=C/[C@H]3[C@@H]1O [CYTOCHALASIN Z9]"
  TARGET ENTITY: "Human immunodeficiency virus 1"
  pIC50: 4.84

From here, focus on the item given below.
Sample "COC(=O)[C@@]1(Cc2ccc3c(c2)C[C@H](O)C(C)(C)O3)OC(=O)C(OC)=C1c1ccc(O)cc1" — what was its pIC50? 4.32

====

The reader will find reported pIC50 values listed item by item below.
test system: Human immunodeficiency virus 1; assay: Antiviral activity against VSV-G pseudotyped HIV1 infected in human SupT1 cells after 48 hrs by luciferase reporter gene assay; type: functional, organism-based; conditions: Human immunodeficiency virus 1, SUP-T1, 48 h
// scale note: pIC50 = -log10(conc_M); give the bare number

Example entries and their recorded answers appear below.
- SMILES DATA: "CC1=C(C)[C@H]2[C@H](Cc3ccccc3)NC(=O)[C@]23OC(=O)/C=C/[C@H](C)[C@H](O)[C@@H](C)C/C=C/[C@H]3[C@@H]1O"
  pIC50: 5.04
- SMILES DATA: "C=C1[C@@H](C)[C@H]2[C@H](Cc3ccccc3)NC(=O)[C@]23OC(=O)/C=C/[C@H](C)[C@H](O)[C@@H](C)C/C=C/[C@H]3[C@@H]1O"
  pIC50: 4.59

Sample "Cc1c(O)c(O)c(O)c2c1COC2" — what was its pIC50? 4.31

Sample "COC(=O)[C@]1(Cc2ccc(O)cc2)OC(=O)C(O)=C1c1ccc(O)cc1" — what was its pIC50? 4.07

Sample "Nc1ccn([C@@H]2CS[C@H](CO)O2)c(=O)n1" — what was its pIC50? 7.00

Sample "C/C(=C\CC/C(C)=C/C[C@]1(O)C(=O)c2c(O)cc(C)c3c(O)c(C)c(O)c(c23)C1=O)CC/C=C(\CC[C@@H](O)C(C)(C)O)C(=O)O" — what was its pIC50? 4.49

Sample "O=C1O/C(=C\c2ccc(O)c(O)c2)C(O)=C1c1ccc(O)cc1" — what was its pIC50? 4.40

Sample "C/C(=C\CC/C(C)=C/C[C@]1(O)C(=O)c2c(O)cc(C)c3c(O)c(C)c(O)c(c23)C1=O)CC/C=C(\CO)CC[C@@H](O)C(C)(C)O" — what was its pIC50? 4.66

Sample "C/C1=C\CC(=O)O[C@@]23C(=O)N[C@@H](Cc4ccccc4)[C@@H]2[C@H](C)[C@@]2(C)O[C@H]2[C@@H]3/C=C/C[C@H](C)C1=O" — what was its pIC50? 4.38
